- targetOrSystem: HLA-A02.01 (Homo sapiens, UniProt P04439, D140Y/D185E/D98H/E176V/E277Q/G131W/G231S/I119V/I121R/I166T/I218V/L300P/L318F/N151K/N90K/P208A/P217A/Q86G/Q94H/R138H/R169H/T345S)
- assayName: Class I MHC peptide binding affinity (displacement of radiolabeled reference peptide)
- testConditions: allele A02.01; read-out: Observed Affinity (IC50; (nM))
Where a SMILES comes first, the peptide text is derived from it.
measuredParameter: IC50 (nM)
Unit nM implied. Number only.

Example results:
>>> assayresult("CC(C)C[C@H](NC(=O)[C@@H](NC(=O)[C@H](CC(=O)O)NC(=O)[C@H](CC(C)C)NC(=O)[C@@H](NC(=O)[C@@H](N)Cc1ccc(O)cc1)[C@@H](C)O)C(C)C)C(=O)N[C@@H](CCC(=O)O)C(=O)N[C@@H](CCCNC(=N)N)C(=O)N[C@@H](CS)C(=O)O")
1760
>>> assayresult("CSCC[C@H](NC(=O)[C@@H](N)Cc1ccc(O)cc1)C(=O)N[C@@H](C)C(=O)N[C@@H](CC(N)=O)C(=O)NCC(=O)N[C@@H](CO)C(=O)N[C@@H](CC(C)C)C(=O)N[C@@H](CC(C)C)C(=O)N[C@@H](CC(N)=O)C(=O)O (H-YMANGSLLN-OH; N-terminus and C-terminus assumed)")
4440
>>> assayresult("CC[C@H](C)[C@H](NC(=O)[C@@H]1CCCN1C(=O)[C@H](CCCNC(=N)N)NC(=O)[C@H](Cc1c[nH]cn1)NC(=O)[C@@H]1CCCN1C(=O)[C@H](CS)NC(=O)[C@H](CCCNC(=N)N)NC(=O)[C@H](CCC(=O)O)NC(=O)[C@H](CC(C)C)NC(=O)[C@@H](N)C(C)C)C(=O)O")
15300
>>> assayresult("CC[C@H](C)[C@H](NC(=O)[C@H](Cc1ccc(O)cc1)NC(=O)[C@H](CC(C)C)NC(=O)[C@@H](N)CO)C(=O)N[C@H](C(=O)NCC(=O)N[C@@H](Cc1ccccc1)C(=O)N[C@@H](Cc1ccc(O)cc1)C(=O)NCC(=O)N[C@@H](C)C(=O)O)C(C)C (H-SLYIVGFYGA-OH; N-terminus and C-terminus assumed)")
390

// query IC50 value for entry CC[C@H](C)[C@H](NC(=O)[C@@H](NC(=O)[C@@H](NC(=O)[C@H](CC(C)C)NC(=O)[C@@H](NC(=O)[C@@H]1CCCN1C(=O)[C@H](CCCNC(=N)N)NC(=O)[C@H](CCC(N)=O)NC(=O)[C@@H](N)CC(N)=O)[C@@H](C)CC)[C@@H](C)O)[C@@H](C)CC)C(=O)O (H-NQRPILTII-OH; N-terminus and C-terminus assumed)
9610

// query IC50 value for entry `CC[C@H](C)[C@H](NC(=O)[C@H](CC(C)C)NC(=O)[C@@H](N)CCC(N)=O)C(=O)N[C@@H](CCSC)C(=O)N[C@@H](CCC(N)=O)C(=O)N[C@@H](CC(C)C)C(=O)N[C@@H](CCSC)C(=O)N1CCC[C@H]1C(=O)N[C@@H](Cc1ccccc1)C(=O)O`
227

// query IC50 value for entry CC(C)C[C@H](NC(=O)[C@@H](N)CC(C)C)C(=O)N[C@@H](CCC(N)=O)C(=O)N[C@@H](CCC(=O)O)C(=O)N[C@@H](Cc1ccccc1)C(=O)N[C@@H](CC(=O)O)C(=O)N[C@H](C(=O)N[C@@H](CCC(N)=O)C(=O)N[C@@H](CCC(=O)O)C(=O)N[C@@H](C)C(=O)O)C(C)C (H-LLQEFDVQEA-OH)
45
